Reported values of growth inhibition for individual entries
# assay comment: NCI Yeast Anticancer Drug Screen. Data for the rad50 strain (AID 155);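 note: 0% = growth of vehicle-only cultures of the same strain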
# run parameters: S. cerevisiae rad50 strain growth inhibition; at 50.0 µM; hits give high values
# Method: Growth inhibition of yeast strains with defined genetic alterations is measured as a screen for potential anti-cancer activity. Selected strains with alterations in DNA damage repair or cell cycle control were exposed to compounds and growth inhibition was measured relative to vehicle treated controls. The strain used in this assay is rad50
This is part of a sample that, as a whole, favours compounds with a hit. Of some 79,000 tested, about 15% had one in any assay.

compound: CCCn1cc2c3c(cccc31)[C@H]1C[C@@H](C)CN(C)[C@@H]1C2
growth inhibition (%): 49.4

compound: CC(C)(C)P(O)(=S)c1ccccc1 (stereo unspecified) (tested in a mixture with another compound)
growth inhibition (%): 2.65

compound: FC(F)(F)c1cccc(NC2=NCCS2)c1
growth inhibition (%): -22.2

compound: O=C(COc1ccc(Cl)c(Cl)c1)Nc1ccc[n+](CC(=O)Nc2ccc(S(=O)(=O)F)cc2)c1
growth inhibition (%): 32.4

compound: O=P(N1CCNCC1)(N1CCNCC1)N1CCNCC1
growth inhibition (%): -20.1

compound: c1ccc2c(C3NCCc4[nH]cnc43)cccc2c1 (stereo unspecified)
growth inhibition (%): 3.7

Where these numbers come from: PubChem BioAssay (NCI)
